Give IC50 for every item shown.
Target: HPA (α-amylase derived from human pancreatic juice) (Homo sapiens, UniProt P04746)
Construct: purchased International Reagents Corp., Japan Calibzyme·AMY
Sequence (P04746 16-511): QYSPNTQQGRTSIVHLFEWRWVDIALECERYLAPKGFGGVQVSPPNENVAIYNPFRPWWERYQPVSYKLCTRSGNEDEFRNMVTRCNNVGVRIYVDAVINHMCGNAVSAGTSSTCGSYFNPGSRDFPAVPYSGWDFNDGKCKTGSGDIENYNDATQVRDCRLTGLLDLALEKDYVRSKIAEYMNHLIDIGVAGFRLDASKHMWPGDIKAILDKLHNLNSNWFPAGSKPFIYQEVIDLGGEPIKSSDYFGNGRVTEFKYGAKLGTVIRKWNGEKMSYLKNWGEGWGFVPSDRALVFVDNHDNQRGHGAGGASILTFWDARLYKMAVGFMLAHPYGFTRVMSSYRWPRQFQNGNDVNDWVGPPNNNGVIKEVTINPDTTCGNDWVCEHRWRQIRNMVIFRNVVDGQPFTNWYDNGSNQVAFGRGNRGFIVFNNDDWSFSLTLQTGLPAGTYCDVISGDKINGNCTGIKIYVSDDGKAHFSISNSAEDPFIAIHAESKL
Test: Inhibition of human α-amylase activity in vitro (blue starch, Neo·Amylase Test), HPA
Format: biochemical
Details: final concentration of inhibitor reducing 50% of the activity of the HPA solution; 37° C., 30 minutes
Field: numeric (mM). Do not append units.

Specify IC50 for OCC1NCC(O)C(O)C1OC1OC(CO)C(OC2OC(CO)C(O)C(O)C2O)C(O)C1O (centres unmarked) [GGDN, Maltosyl-deoxynojirimycin, reference compound] and stop. 0.26

Specify IC50 for CC1OC(OC2C(CO)OC(OC3C(CO)NCC(O)C3O)C(O)C2O)C(O)C(O)C1OC1OC(CO)C(O)C(O)C1O (centres unmarked) [GDOGGDN] and stop. 0.05
